# System: HS 578T breast
# protocol description: NCI-60 one-dose screen, 48 h (100 = growth as untreated, 0 = no growth, -100 = all killed)
# test settings: 10 µM unless noted
Compounds without any hit were thinned out: in the full panel of roughly 83,000, 20% have a hit. Active and inactive are the calls of the source. How the source made its calls: active means growth percent below 10; inactive means the rest.

compound: COc1ccc(C(O)c2cc3c(N)c(C(=O)Nc4cccc(Br)c4C)sc3nc2C)cc1 (centres undefined)
target entity: HS 578T breast
growth: 21.8% (inactive)
//
compound: NC(=O)c1cccc(-n2ccc3cc(NC(=O)Nc4cc(C(F)(F)F)cc(C(F)(F)F)c4)ccc32)n1
target entity: HS 578T breast
growth: 38.6% (inactive)
//
compound: C=C1C(=O)O[C@H]2[C@H]1CC/C(COC(=O)NCCc1c[nH]c3ccc(Cl)cc13)=C\CC[C@@]1(C)O[C@@H]21
target entity: HS 578T breast
growth: 22.8% (inactive)
//
compound: COc1ccc(C2CC(c3cccc(Nc4ccncc4)c3)=NN2c2ccc(Cl)cc2)cc1 (centres undefined)
target entity: HS 578T breast
growth: 60.7% (inactive)
//
compound: CC1=CC[C@@H]2CC[C@]3(C)[C@H](CC[C@@H]4[C@@]5(C)CCCNC(C)(C)[C@@H]5CC[C@]43C)[C@H]2[C@@H]1C
target entity: HS 578T breast
growth: 92.9% (inactive)
//
compound: O=C1Nc2c(ccc(Cl)c2Cl)/C1=C/c1ccc(F)cc1
target entity: HS 578T breast
growth: 73.8% (inactive)
//
compound: CCCCCCNC(=O)Oc1ccc(/C(=C(/CC)Cc2ccccc2)c2ccc(OCCN(CC)CC)cc2)cc1
target entity: HS 578T breast
growth: 69.7% (inactive)
//
compound: COc1ccc(/C=C\c2nc3ccccc3s2)cc1OP(=O)(O)O
target entity: HS 578T breast
growth: 14.8% (inactive)
//
compound: CC(=O)c1cccc(NS(=O)(=O)c2cccc(C(=O)Nc3ccc(Br)cc3)c2)c1
target entity: HS 578T breast
growth: 80.6% [25 µM] (inactive)

* * *

# System: DU-145 prostate
# protocol description: NCI-60 one-dose screen, 48 h
# test settings: 10 µM unless noted
Compounds without any hit were thinned out: in the full panel of roughly 83,000, 20% have a hit. Activity calls are given as the source filed them. How the source made its calls: active means growth percent below 10; inactive means the rest.
Outcome codes: active, inactive

compound: Cc1ccc(C2CC(c3cccc(Nc4ccncc4)c3)=NN2c2cc(Cl)cc(Cl)c2)cc1 (centres undefined)
assigned label: inactive
--
compound: CN1CCN(Cc2ccc(NC(=O)c3cncc(C#Cc4cnccc4C(F)(F)F)c3)cc2C(F)(F)F)CC1
assigned label: inactive
--
compound: COc1cccc(-c2nc3occn3c2-c2ccnc(NCCCNS(=O)(=O)c3cccc(F)c3)n2)c1
assigned label: inactive
--
compound: CCCCCN1C=C/C(=C\C(=O)N(C)c2ccc(Br)cc2)c2ccccc21
assigned label: inactive
--
compound: O=C(NNc1nc(Cl)nc(N2CCN(C(c3ccccc3)c3ccccc3)CC2)n1)c1ccccc1
assigned label: inactive
--
compound: CN1CCN(C(=O)OCc2nc3c(N4CCOCC4)nc(-c4ccccc4)nc3n2C)CC1
assigned label: active
--
compound: O=C(Nc1nc2ccc(S(=O)(=O)Nc3ccc(C4(C(F)(F)F)CC4)cc3)cc2[nH]1)c1cnccn1
assigned label: inactive
--
compound: O=S(=O)(NCCCNc1nccc(-c2c(-c3cccc(O)c3)nc3occn23)n1)c1ccc(Br)cc1
assigned label: inactive
--
compound: O=C(CCN1CCCC1)Nc1ccc2c(Nc3ccccc3)c3ccccc3nc2c1
assigned label: active

* * *

growth values, listed per item
# Test system: SN12C renal
# protocol description: NCI-60 one-dose screen, 48 h (100 = growth as untreated, 0 = no growth, -100 = all killed)
# test settings: 10 µM unless noted
The panel holds about 83,000 compounds, 20% with a hit somewhere; the sample as a whole holds those more often. Calls of active or inactive are those of the source. How the source made its calls: active means growth percent below 10; inactive means the rest.
measure name: growth

molecule: CN(C)C(=O)OCc1nc2c(N3CCOCC3)nc(-c3ccccc3)nc2n1C
measure name: growth
reported result: -90.7% (active)
--
molecule: O=C(N/N=C/c1ccncc1)c1ccccc1Nc1cccc(C(F)(F)F)c1
measure name: growth
reported result: 90.8% (inactive)
--
molecule: C=C(C)[C@@H]1CC[C@]2(CO)CC[C@]3(C)[C@H](CC[C@@H]4[C@@]5(C)CCCNC(C)(C)[C@@H]5CC[C@]43C)[C@@H]12
measure name: growth
reported result: 45.9% (inactive)
--
molecule: CC[C@H](C)[C@@H]1NC(=O)[C@H](Cc2ccc(O)cc2)N(C)C(=O)[C@H](Cc2ccccc2)NC(=O)CN(C)C(=O)[C@@H]2CCCN2C(=O)[C@@H](Cc2ccccc2)N(C)C(=O)[C@H](CC(C)C)NC1=O
measure name: growth
reported result: -13.7% (active)
--
molecule: Cc1ccc(Nc2cc(=S)nc(N)[nH]2)cc1C
measure name: growth
reported result: 92.4% (inactive)
--
molecule: O=C(Nc1ccc(Nc2ncccn2)cc1)NC1C=c2ccccc2=CC1 (stereo not drawn)
measure name: growth
reported result: 92.5% (inactive)
--
molecule: FC(F)(F)c1cccc(Nc2ccccc2)c1
measure name: growth
reported result: 101% (inactive)
--
molecule: CCn1cc(C2NC(=O)c3ccccc3N2)c2cccc(C)c21 (stereo not drawn)
measure name: growth
reported result: 23.9% (inactive)
--
molecule: [2H]C1([2H])NC([2H])([2H])C([2H])([2H])N(c2ccc(Nc3ncc4cc(C(=O)N(C)C)n(C5CCCC5)c4n3)nc2)C1([2H])[2H]
measure name: growth
reported result: 74.9% (inactive)
--
molecule: CC1NC(=S)NC(=O)/C1=C/c1cc(=O)oc2c1ccc1ccccc12 (stereo not drawn)
measure name: growth
reported result: 95.6% (inactive)
--
molecule: COc1ccc(/C=N/C2=C(C#N)C(c3ccccc3[N+](=O)[O-])c3ccc4ccccc4c3O2)cc1 (stereo not drawn)
measure name: growth
reported result: 91.6% (inactive)
--
molecule: O=C(N=Nc1c(O)[nH]c2ccc(F)cc12)c1cc2ccccc2[nH]1
measure name: growth
reported result: 91.2% (inactive)
--
molecule: COc1ccccc1/C=C1\Oc2cc(OCCCN3CCCC3)ccc2C1=O
measure name: growth
reported result: 86.9% (inactive)
--
molecule: CC(=O)NCCCS(=O)(=O)O
measure name: growth
reported result: 88.3% (inactive)
--
molecule: CS(=O)(=O)Nc1cc(-c2ccc3ncnc(Nc4ccc5[nH]ncc5c4)c3c2)cnc1Cl
measure name: growth
reported result: 67.8% (inactive)
--
molecule: COc1ccccc1C(C[N+](=O)[O-])c1c(-c2ccccc2)[nH]c2cc(C)ccc12 (stereo not drawn)
measure name: growth
reported result: 77.9% (inactive)
--
molecule: CN1CCN(c2cnc(C(=O)Nc3cc(F)cc4cccnc34)cn2)CC1
measure name: growth
reported result: 62.2% (inactive)
--
molecule: CC1(C)CC[C@]2(C(=O)NCC#CCN3CCOCC3)CC[C@]3(C)C(=CC[C@@H]4[C@@]5(C)Cc6c([nH]c7ccccc67)C(C)(C)[C@@H]5CC[C@]43C)[C@@H]2C1
measure name: growth
reported result: 94.4% (inactive)

* * *

# System: SW-620 colon
# protocol description: NCI-60 one-dose screen, 48 h
# test settings: 10 µM unless noted
About 83,000 compounds went through this panel and 20% of them were active in at least one assay; those are over-represented in the sample as a whole. The source made the active and inactive calls. How the source made its calls: active means growth percent below 10; inactive means the rest.
Outcome codes: t (active), f (inactive)

compound: CC[N+](CC)(CCCC(C)[N+]1(Cc2ccccc2)C(C)=CC=C1C)Cc1ccccc1 (stereo unspecified)
assigned label: f

compound: c1ccc2c(-c3c4ccsc4cc4[nH]c5ccccc5c34)c[nH]c2c1
assigned label: f

compound: COc1cc2nc(-c3ccc(C(F)(F)F)cc3)cc(OCCCN3CCC(O)CC3)c2cc1OC
assigned label: f

compound: COc1cc(NCC(O)CN(CC(C)C)CC(C)C)c2nc(C)ccc2c1 (stereo unspecified)
assigned label: f

compound: CC(c1ccccc1)n1ccnc1CO (stereo unspecified)
assigned label: f

compound: COc1ccc(CNCCN2C(=O)c3ccc4c5c(ccc(c35)C2=O)C(=O)N(CCNCc2ccc(OC)cc2)C4=O)cc1
assigned label: t

* * *

# System: NCI-H23 lung
# protocol description: NCI-60 one-dose screen, 48 h (100 = growth as untreated, 0 = no growth, -100 = all killed)
# test settings: 10 µM unless noted
About 83,000 compounds went through this panel and 20% of them were active in at least one assay; those are over-represented in the sample as a whole.

molecule: Clc1ccc(C2CC(c3cccc(Nc4ccncc4)c3)=NN2c2ccccc2)cc1 (stereo not given)
units label: %
growth: 84.3
//
molecule: COc1cc(NCCCN(CC(C)C)C2CCCC2)c2ncccc2c1
units label: %
growth: 62.5
//
molecule: Cn1c(COC(=O)N2CCCCC2)nc2c(N3CCOCC3)nc(-c3ccccc3)nc21
units label: %
growth: -75.9
//
molecule: Cc1ccccc1-c1cc(Cc2ccc(F)cc2)c(=O)[nH]n1
units label: %
growth: 98.3
//
molecule: O=S(=O)(c1ccccc1)N1CCCc2ccccc21
units label: %
growth: 102
//
molecule: CN1CCN(c2ccc3nc(-c4cc(C(C)(C)C)c(O)c(C(C)(C)C)c4)[nH]c3c2)CC1
units label: %
growth: 92.6
//
molecule: CC(C)(C)CC(C)(C)Nc1c(-c2ccc3c(c2)OCO3)nc2cnccn12
units label: %
growth: 97.7
//
molecule: O=CNc1cc(Cl)cc(Cl)c1
units label: %
growth: 102
//
molecule: COc1cc(C2CC(c3cccc(Nc4ccncc4)c3)=NN2c2ccc(Cl)cc2)cc(OC)c1OC (stereo not given)
units label: %
growth: 79.9
//
molecule: Cc1ccc(-c2c(Br)c(OC(=O)CO[C@@H]3C[C@H](C)CC[C@H]3C(C)C)c(-c3ccc(C)cc3C)c(Br)c2OC(=O)CO[C@H]2C[C@@H](C)CC[C@@H]2C(C)C)c(C)c1
units label: %
growth: 98.6

Where these numbers come from: PubChem BioAssay (NCI)
